Measured values drawn from patent US20260364080A1 for this set.

target.entity: Myt1 kinase (recombinant PMYT-1) (Homo sapiens, UniProt Q99640)
Construct: full length PMYT-1 was expressed by baculovirus in insect cells; purchased Invitrogen A30984; host or cells: insect cells (baculovirus)
Sequence (Q99640 whole entry): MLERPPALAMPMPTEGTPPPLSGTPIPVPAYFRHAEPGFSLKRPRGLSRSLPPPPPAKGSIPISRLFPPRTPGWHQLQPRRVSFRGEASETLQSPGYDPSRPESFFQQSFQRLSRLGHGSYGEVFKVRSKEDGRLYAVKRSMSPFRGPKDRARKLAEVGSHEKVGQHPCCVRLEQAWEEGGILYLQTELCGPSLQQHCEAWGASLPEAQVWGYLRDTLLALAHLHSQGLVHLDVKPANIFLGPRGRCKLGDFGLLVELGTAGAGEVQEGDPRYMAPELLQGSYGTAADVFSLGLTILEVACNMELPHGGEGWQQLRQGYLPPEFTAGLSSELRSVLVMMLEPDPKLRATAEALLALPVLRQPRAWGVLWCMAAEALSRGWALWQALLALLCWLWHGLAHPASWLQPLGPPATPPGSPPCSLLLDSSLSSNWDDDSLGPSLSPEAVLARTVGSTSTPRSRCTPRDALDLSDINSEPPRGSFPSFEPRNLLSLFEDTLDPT
procedure.details: Myt1 kinase binding assay (LanthaScreen Eu Kinase Binding Assay)
condition.details: 3 nM tracer 178, 2.5 nM PMYT-1, 1 nM Eu-labeled antibody; read-out: Myt1 kinase Binding IC50
Measured IC50, listed per entry for reference.
experimental.endpoint: IC50

- CCn1c(=O)c2cnc(Nc3cccc(-c4ccccc4)c3)nc2n1-c1cccc(OC2CCNCC2)n1: 20 to 100 nM
- C=CCn1c(=O)c2cnc(Nc3ccc4nc(C)sc4c3)nc2n1-c1cccc(OC2CCN(C)CC2)n1: < 20 nM
- CCn1c(=O)c2cnc(Nc3cccc(-c4cnn(C)c4)c3)nc2n1-c1cccc(OC2CCNCC2)n1: 100 to 500 nM
- C=CCn1c(=O)c2cnc(Nc3cc(C)nc(C)c3)nc2n1-c1cccc(OC2CCN(C)CC2)n1: 100 to 500 nM
- C=CCn1c(=O)c2cnc(Nc3ccc(OCC(F)(F)F)cc3)nc2n1-c1cccc(OC2CCNCC2)n1: < 20 nM
- C=CCn1c(=O)c2cnc(Nc3ccc4c(cnn4C)c3)nc2n1-c1cccc(O[C@H]2CCN[C@H](C)C2)n1 (stereo in doubt): 100 to 500 nM
- C=CCn1c(=O)c2cnc(Nc3ccc4c(cnn4C)c3)nc2n1-c1cccc(OC2CCCNCC2)n1 (single isomer, unassigned): 20 to 100 nM
